assay: probe aLefty1 binding on compound microarray – biochemical, small-molecule microarray, 635/667 nm fluorescence, primary screen (AID 1153); conditions: higher = more signal;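 also: score merges spot fluorescence with signal-to-noise ratio from the scanned slide images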
Label scheme for composite z-score: lower than 0.2 is not fulfilled, 0.2 and above is fulfilled.

query: State whether the measured composite z-score reaches 0.2, counting equality as reaching it, for CCCCC[C@H]1OC[C@@]23C=C(Br)[C@@H](CC12)[C@@]1(CO1)C3=O (some centres not stated)
result: not fulfilled

query: Next up: Cn1cccc1C(O)C1C=CC2C(=O)N(c3ccccc3)C(=O)C2N1Nc1ccccc1 (configuration not stated)
result: fulfilled

query: What do we get for [N-]=[N+]=Nc1ccccc1C[C@]1(C(=O)NCC(O)CO)COC(c2ccc(OCCCO)cc2)=N1 (some centres not stated) ?
result: not fulfilled

query: Follow-up entry: `Oc1ccc2cc[n+](Cc3cc4c(cc3Br)OCO4)cc2c1`
result: not fulfilled

query: Next record, please: `Cc1ccc(S[C@]2(C(=O)O)CC(=O)N(C3CCCCC3)[C@@H]2c2ccc(CO)cc2I)cc1`
result: fulfilled

query: Subsequent entry: `C=CCNC(=O)[C@H]1[C@@H]2C(=O)O[C@@H](c3ccccc3)[C@@H](c3ccccc3)N2[C@@H](c2ccccc2OCCO)[C@]12C(=O)N(C(=O)OCCOC)c1ccc(C#CC3(O)CCCCCC3)cc12`
result: fulfilled

query: Likewise for O=C1OCCC=C[C@H]2OC34C=CCN(c5ccc6ccccc6c5)C(=O)[C@H]3N(CCCO)C(=O)[C@@H]4C12 (some centres not stated) ?
result: not fulfilled

query: Try `CN(C)C(=O)[C@@]1(Cc2ccccc2CN=[N+]=[N-])N=C(c2ccc(OCCCO)cc2)O[C@H]1c1ccccc1N=[N+]=[N-]` next.
result: fulfilled

query: Can you check `C[N+](C)(C)CCCC[C@@H]1NC(=O)[C@@H]2C[C@H](C(=O)NCCCCCCN)[C@H](c3cccc(OCCO)c3)N2C1=O` next?
result: fulfilled

query: Repeat with `[N-]=[N+]=Nc1ccccc1C[C@@]1(C(=O)N2CCOCC2)N=C(c2ccc(OCCCO)cc2)O[C@@H]1c1ccccc1`
result: not fulfilled

query: And the next one, `NC(=O)[C@@]1(Cc2ccccc2)COC(c2ccc(OCCCO)cc2)=N1` ?
result: fulfilled

query: Another molecule to check: `COCCCNC(=O)[C@@]1(CCC(=O)OC(C)(C)C)N=C(c2ccc(OCCCO)cc2)O[C@H]1c1ccccc1N=[N+]=[N-]`
result: fulfilled

query: And `CCCC=C(CCC)[C@@H](NC(=O)c1cccs1)c1ccc(C(=O)OC)cc1` ?
result: fulfilled

query: Entry to check: CS(=O)(=O)CCOC(=O)C1=CC(c2ccc(CO)cc2)=CC(C2CC2)N(Cc2sc3ccccc3c2Cl)C=C1C(=O)OCCS(C)(=O)=O (configuration not stated)
result: not fulfilled

query: Next record, please: `COC(=O)[C@@]1(Cc2ccc(F)cc2)[C@H]2c3cc(C(=O)N4CCCC4)n(Cc4ccc(C)c(F)c4F)c3C[C@H]2CN1C(=O)c1ccccc1`
result: fulfilled

query: Repeat with `C=CCN1C(=O)[C@]2(CCC(=O)OC(C)(C)C)N=C(c3ccc(OCCCO)cc3)O[C@@H]2c2ccccc21`
result: fulfilled

query: Next molecule: `COC(=O)C/C=C/C[C@]1(O)C(=O)N(C)c2ccccc21`
result: not fulfilled

query: Try CC(C)N1CC=CC23O[C@@H]4C=CCCOC(=O)C4[C@H]2C(=O)N(CCCO)[C@@H]3C1=O (some centres not stated) next.
result: not fulfilled

query: Cool, now `COC(=O)c1c(CC[C@@H](CO)NC(=O)N[C@@H](C)Cn2cc(-c3ccccn3)nn2)oc(C(C)=O)c1C(=O)OC`
result: not fulfilled

query: Consider next the molecule `O=C(NCCN1CCOCC1)[C@@H]1c2ccccc2C(=O)N(C2Cc3ccccc3C2)[C@H]1c1ccc(CO)cc1` in the same way.
result: not fulfilled

query: Moving on to the next molecule: `COc1cccc(C)c1NC(=O)O[C@H]1[C@H](OC(=O)Nc2ccc3c(c2)OCO3)[C@@H](OC(=O)Nc2ccc3c(c2)OCO3)[C@@H](OC)O[C@@H]1CO`
result: not fulfilled

query: Entry to check: `CC[C@@H]1C=C(C(=O)O)[C@H](c2ccccc2)N1S(=O)(=O)c1ccc(C)cc1`
result: not fulfilled

query: Could you do the same for `COCCOC(=O)N1C(=O)[C@@]2(c3cc(C#CCNC(N)=O)ccc31)[C@H](C(N)=O)[C@H]1C(=O)O[C@H](c3ccccc3)[C@H](c3ccccc3)N1[C@@H]2c1ccccc1OCCO` , please?
result: not fulfilled

query: Same thing, different molecule: `CCOC(=O)C[C@H]1[C@H](OC(=O)c2ccc(-c3ccccc3)cc2)[C@@H](NC(=O)CC(C)C)c2cc(OCCCO)ccc2N1C(=O)c1ccc2ccccc2n1`
result: not fulfilled

query: Now give it for `C=CC[C@]1(C(=O)N2CCOCC2)COC(c2ccc(OCCCO)cc2)=N1` too.
result: fulfilled

query: Next up: C=CCC(OC(C)=O)[C@@H]1[C@@H](N(Cc2ccc(-c3ccccc3)cc2)C(=O)c2ccc(-c3ccccc3)cc2)c2cc(OCCCO)ccc2N1C(=O)c1ccc2ccccc2c1 (some centres not stated)
result: fulfilled

query: Here is the next molecule: `CC(C)[Si](C#CCCCC#N)(O[C@H](c1ccccc1)c1cn(Cc2ccccc2)nn1)C(C)C`
result: not fulfilled

query: Next: `COc1ccc(CCNC(=O)[C@@H]2c3ccccc3C(=O)N(C3CCCCC3)[C@H]2c2ccc(CO)cc2)cc1`
result: not fulfilled

query: Request: Cc1ccccc1C(O)C1C=CC2C(=O)NC(=O)C2N1Nc1ccccn1 (configuration not stated)
result: not fulfilled

query: Now consider `C=CC[C@@H](OC(=O)Nc1ccc(SC)cc1)c1ccc(O)c(F)c1` and answer again.
result: not fulfilled

query: Now try `COC(=O)[C@@]1(Cc2ccc(OC)cc2)[C@H]2c3cc(C(=O)N4CCCC4)n(CCc4c[nH]c5ccc(O)cc45)c3C[C@H]2CN1C(=O)c1ccccc1` .
result: fulfilled

query: Note, next up: `C#CCN(Cc1ccccc1Br)[C@H](/C=C/c1ccccc1)[C@@H](O)Cc1ccccc1`
result: not fulfilled
